System: RET (human), P07949 [V804L]
Sequence (P07949 whole entry V804L, looked up): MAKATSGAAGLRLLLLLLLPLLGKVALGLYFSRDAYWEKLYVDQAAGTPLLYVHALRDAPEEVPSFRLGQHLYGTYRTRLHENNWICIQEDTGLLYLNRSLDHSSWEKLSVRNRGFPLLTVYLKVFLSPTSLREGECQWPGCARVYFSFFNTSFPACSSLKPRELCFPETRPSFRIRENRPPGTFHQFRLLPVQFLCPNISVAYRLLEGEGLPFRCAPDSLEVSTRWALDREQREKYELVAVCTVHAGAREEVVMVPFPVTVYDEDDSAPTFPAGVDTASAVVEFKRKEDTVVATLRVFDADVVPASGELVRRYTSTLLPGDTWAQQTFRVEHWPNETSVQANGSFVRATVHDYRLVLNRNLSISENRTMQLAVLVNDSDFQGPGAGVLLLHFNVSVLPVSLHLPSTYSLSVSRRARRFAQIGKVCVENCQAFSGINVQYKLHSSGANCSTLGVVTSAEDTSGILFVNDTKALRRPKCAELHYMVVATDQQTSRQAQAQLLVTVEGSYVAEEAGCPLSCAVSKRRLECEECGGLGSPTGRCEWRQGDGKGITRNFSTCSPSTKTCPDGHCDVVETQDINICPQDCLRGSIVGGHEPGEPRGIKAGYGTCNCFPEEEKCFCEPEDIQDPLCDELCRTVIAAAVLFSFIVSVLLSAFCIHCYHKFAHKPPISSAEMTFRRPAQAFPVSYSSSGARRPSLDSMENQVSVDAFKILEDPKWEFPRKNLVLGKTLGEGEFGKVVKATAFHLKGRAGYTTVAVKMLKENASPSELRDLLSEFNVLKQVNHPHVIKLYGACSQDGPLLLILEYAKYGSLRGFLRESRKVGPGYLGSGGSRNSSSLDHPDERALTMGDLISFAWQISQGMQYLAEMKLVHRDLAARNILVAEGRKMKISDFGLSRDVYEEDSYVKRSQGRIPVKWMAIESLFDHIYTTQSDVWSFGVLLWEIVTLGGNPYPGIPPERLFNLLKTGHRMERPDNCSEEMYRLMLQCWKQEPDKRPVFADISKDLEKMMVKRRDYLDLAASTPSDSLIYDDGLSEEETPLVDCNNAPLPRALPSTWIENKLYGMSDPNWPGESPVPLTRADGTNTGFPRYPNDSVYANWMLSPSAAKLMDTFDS
Assay: KINOMEscan competition binding
Conditions: compound 10.0 µM
Below, each entry is listed alongside its reported kinase still bound, per cent of control.

{"Molecular string": "COc1cc(C(=O)NC2CCN(C)CC2)ccc1Nc1ncc2c(n1)N(C1CCCC1)CCC(=O)N2C(C)C", "kinase still bound, per cent of control / %": 0}
{"Molecular string": "N=C1NC(=O)/C(=C/c2ccc(-c3cncc4ccccc34)o2)S1", "kinase still bound, per cent of control / %": 23}
{"Molecular string": "COc1cc(N2CCC(O)CC2)ccc1Nc1ncc2c(n1)N1CCc3cccc(c31)C(=O)N2C", "kinase still bound, per cent of control / %": 100}
{"Molecular string": "CN1C(=O)c2ccccc2N(C)c2nc(NS(=O)(=O)c3ccc(N)cc3)ncc21", "kinase still bound, per cent of control / %": 100}
{"Molecular string": "COc1cc(N2CCN(C)CC2)ccc1Nc1ncc2c(n1)N(C)c1sccc1C(=O)N2C", "kinase still bound, per cent of control / %": 89}
{"Molecular string": "CN1C(=O)c2ccccc2N(C)c2nc(Nc3ccc(N4CCC(O)CC4)cn3)ncc21", "kinase still bound, per cent of control / %": 34}
{"Molecular string": "COc1cc(N2CCN(C)CC2)ccc1Nc1ncc2c(n1)N(C)c1ccccc1N(C)C2=O", "kinase still bound, per cent of control / %": 100}
{"Molecular string": "O=C1NC(=O)/C(=C/c2c[nH]c(=O)c(-c3ccc(N4CCNCC4)nc3)c2)S1", "kinase still bound, per cent of control / %": 70}
{"Molecular string": "CN1C(=O)c2ccccc2N(C)c2nc(Nc3ccc(N4CCC(O)CC4)cc3)ncc21", "kinase still bound, per cent of control / %": 1.7}
{"Molecular string": "CN1CCN(c2ccc(C(=O)Nc3ncc4c(n3)N(C)c3ccccc3C(=O)N4C)cc2)CC1", "kinase still bound, per cent of control / %": 100}
{"Molecular string": "COc1cc(N2CCN(C)CC2)ccc1Nc1ncc2c(n1)Nc1ccccc1NC2=O", "kinase still bound, per cent of control / %": 80}

---

Target: STK33 (human)
Test: KINOMEscan competition binding
Details: compound 10.0 µM
Below, each entry is listed alongside its reported kinase still bound, per cent of control.
Quantity name: kinase still bound, per cent of control (%)

{"Molecular string": "COc1cc(N2CCN(C)CC2)ccc1Nc1ncc2c(n1)N1CCC[C@H]1CC(=O)N2C", "Result": 5}
{"Molecular string": "CN1C(=O)c2ccccc2N(C)c2nc(NS(=O)(=O)c3ccc(N)cc3)ncc21", "Result": 100}
{"Molecular string": "CCOc1cc(N2CCC(O)CC2)ccc1Nc1ncc2c(n1)N(C1CCCC1)CCC(=O)N2CC", "Result": 22}
{"Molecular string": "CN1C(=O)c2ccccc2N(C)c2nc(Nc3ccc(N4CCC(O)CC4)cc3)ncc21", "Result": 75}
{"Molecular string": "COc1cc(N2CCC(O)CC2)ccc1Nc1ncc2c(n1)N(C)c1ccccc1C(=O)N2C", "Result": 19}
{"Molecular string": "COc1cc(N(C)CCCO)ccc1Nc1ncc2c(n1)N(C1CCCC1)CCC(=O)N2C", "Result": 11}

---

Target: MELK (human)
Assay: KINOMEscan competition binding
Details: compound 10.0 µM
Rule: kinase still bound, per cent of control below 70% gives label 1. Equal to or above 70% gives label 0.

{"Molecular string": "CN1CCN(c2ccc(C(=O)Nc3ncc4c(n3)N(C)c3ccccc3C(=O)N4C)cc2)CC1", "Group": "label 0"}
{"Molecular string": "COc1cc(N2CCN(C)CC2)ccc1Nc1ncc2c(n1)Nc1ccccc1NC2=O", "Group": "label 1"}
{"Molecular string": "CN1C(=O)c2ccccc2N(C)c2nc(Nc3ccc(N4CCC(O)CC4)cc3)ncc21", "Group": "label 0"}
{"Molecular string": "N=C1NC(=O)/C(=C/c2ccc(-c3cncc4ccccc34)o2)S1", "Group": "label 1"}
{"Molecular string": "CN1C(=O)[C@H]2CCC[C@H]2N(C2CCCC2)c2nc(Nc3ccc4ncccc4c3)ncc21", "Group": "label 1"}
{"Molecular string": "N=C1NC(=O)/C(=C/c2c[nH]c(=O)c(-c3ccc(N4CCNCC4)nc3)c2)S1", "Group": "label 1"}
{"Molecular string": "COc1cc(N2CCN(C)CC2)ccc1Nc1ncc2c(n1)N(C)c1ccccc1N(C)C2=O", "Group": "label 0"}
{"Molecular string": "CN1C(=O)c2ccccc2N(C)c2nc(NS(=O)(=O)c3ccc(N)cc3)ncc21", "Group": "label 0"}
{"Molecular string": "CN1C(=O)[C@H]2CCC[C@H]2N(C2CCCC2)c2nc(Nc3ccc(C(N)=O)cc3)ncc21", "Group": "label 1"}
{"Molecular string": "COc1cc(N2CCC(O)CC2)ccc1Nc1ncc2c(n1)N1CCc3cccc(c31)C(=O)N2C", "Group": "label 0"}
{"Molecular string": "O=C1NC(=O)/C(=C/c2c[nH]c(=O)c(-c3ccc(N4CCNCC4)nc3)c2)S1", "Group": "label 1"}
{"Molecular string": "Nc1cccc(-c2cc(/C=C3\\SC(=O)NC3=O)c[nH]c2=O)c1", "Group": "label 1"}
